Value source: ChEMBL document CHEMBL4229569

# experimental_details: Tmax in Sprague-Dawley rat at 20 mg/kg, po by LC-MS/MS analysis
# Type: ADME, organism-based
# condition_description: in vivo
measurement_kind: Tmax (h)
Value expressed in h; do not type the unit.

Some molecules with recorded Tmax:
Cc1nnc(C(C)C)n1[C@@H]1C[C@H]2CC[C@@H](C1)N2CC[C@H](NC(=O)C1CCCCC1)c1cccs1 :: 0.25
Cc1nnc(C(C)C)n1[C@@H]1C[C@H]2CC[C@@H](C1)N2CC[C@H](NC(=O)C1CCCC1)c1cccs1 :: 2
Cc1ccc([C@H](CCN2[C@@H]3CC[C@H]2C[C@H](n2c(C)nnc2C(C)C)C3)NC(=O)C2CCC(F)(F)CC2)s1 :: 2

Using the record for Cc1nnc(C(C)C)n1[C@@H]1C[C@H]2CC[C@@H](C1)N2CC[C@H](NC(=O)C1CCC(F)(F)CC1)c1ccsc1 , report its Tmax.
2

Using the record for Cc1nnc(C(C)C)n1[C@@H]1C[C@H]2CC[C@@H](C1)N2CC[C@H](NC(=O)C1CCC(F)(F)CC1)c1cccs1 , report its Tmax.
4

====

Entries and their half-life values follow.
# experimental_details: Half life in dog at 3 mg/kg, iv by LC-MS/MS analysis
# Assay type: ADME, organism-based, Canis lupus familiaris
# condition_description: in vivo
Value expressed in h; do not type the unit.

Cc1nnc(C(C)C)n1[C@@H]1C[C@H]2CC[C@@H](C1)N2CC[C@H](NC(=O)C1CCC(F)(F)CC1)c1ccsc1 :: 1.7

Now, please, on to the next molecule.
Using the record for Cc1nnc(C(C)C)n1[C@@H]1C[C@H]2CC[C@@H](C1)N2CC[C@H](NC(=O)C1CCCC1)c1cccs1 , report its half-life.
0.9

====

# system_tested: C-C chemokine receptor type 5 (Homo sapiens, UniProt P51681)
# Sequence (P51681 whole entry): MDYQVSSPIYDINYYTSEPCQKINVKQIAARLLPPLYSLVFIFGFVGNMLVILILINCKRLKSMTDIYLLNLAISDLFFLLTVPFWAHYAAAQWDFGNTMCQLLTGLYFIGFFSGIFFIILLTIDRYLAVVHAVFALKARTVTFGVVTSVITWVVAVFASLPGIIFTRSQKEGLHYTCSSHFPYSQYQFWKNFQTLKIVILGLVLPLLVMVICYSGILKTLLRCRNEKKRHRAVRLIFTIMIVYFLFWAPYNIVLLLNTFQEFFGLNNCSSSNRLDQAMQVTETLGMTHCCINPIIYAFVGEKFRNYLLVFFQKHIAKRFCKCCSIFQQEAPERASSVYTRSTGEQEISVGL
# experimental_details: Antagonist activity at CCR5 (unknown origin) expressed in HEK293 cells co-expressing Galpha16 assessed as inhibition of RANTES-induced calcium flux preincubated for 10 mins followed by RANTES addition by fluo-4AM-based fluorescence assay
I'd appreciate it if you marked entries 1 when IC50 is lower than 7 nM and 0 when it is not.

Is the reported IC50 for Cc1nnc(C(C)C)n1[C@@H]1C[C@H]2CC[C@@H](C1)N2CC[C@H](NC(=O)C1CCC(F)(F)CC1)c1csc2ccccc12 strictly below 7 nM?
0

Is the reported IC50 for Cc1nnc(C(C)C)n1[C@@H]1C[C@H]2CC[C@@H](C1)N2CC[C@H](NC(=O)C1CCC(F)(F)CC1)c1ccsc1 strictly below 7 nM?
1

Is the reported IC50 for Cc1nnc(C(C)C)n1[C@@H]1C[C@H]2CC[C@@H](C1)N2CC[C@H](NC(=O)C1CC(=O)N(C)C1)c1cccs1 (stereo partly specified) strictly below 7 nM?
1

Is the reported IC50 for Cc1ccc([C@H](CCN2[C@@H]3CC[C@H]2C[C@H](n2c(C)nnc2C(C)C)C3)NC(=O)C2CCC(F)(F)CC2)s1 strictly below 7 nM?
1

Is the reported IC50 for Cc1nnc(C(C)C)n1[C@@H]1C[C@H]2CC[C@@H](C1)N2CC[C@H](NC(=O)C1CC(F)(F)C1)c1cccs1 strictly below 7 nM?
1

Is the reported IC50 for Cc1nnc(C(C)C)n1[C@@H]1C[C@H]2CC[C@@H](C1)N2CC[C@H](NC(=O)C1CCC(F)(F)CC1)c1cccnc1 strictly below 7 nM?
0

Is the reported IC50 for Cc1nnc(C(C)C)n1[C@@H]1C[C@H]2CC[C@@H](C1)N2CC[C@H](NC(=O)C1CCCCC1)c1cccs1 strictly below 7 nM?
1

Is the reported IC50 for Cc1nnc(C(C)C)n1[C@@H]1C[C@H]2CC[C@@H](C1)N2CC[C@H](NC(=O)C1CCC(F)(F)CC1)c1ccc(Cl)s1 strictly below 7 nM?
0

Is the reported IC50 for Cc1nnc(C(C)C)n1[C@@H]1C[C@H]2CC[C@@H](C1)N2CC[C@H](NC(=O)C1CCC(F)(F)CC1)c1ccc(F)nc1 strictly below 7 nM?
0
